- Tested on: serum cholesterol
- Protocol details: Serum cholesterol lowering effect in rat having high cholesterol [3-1]
- Format: in vivo, SD-type (Sprague-Dawley) male rat
- Experimental parameters: 3 mg/kg, oral, once a day for 5 days, dissolved in saline, Table 12
Measured parameter: Cholesterol lowering effect, % (serum total cholesterol vs control group) (%)
Give bare numbers, in %.

Consider the following items and state reported Cholesterol lowering effect, % (serum total cholesterol vs control group) for each.
1. CN(C)c1ccc(NC(=O)N(C[C@H]2CC[C@@H](CN(C(=O)Nc3ccc(N(C)C)cc3)C3CCCCC3)CC2)C2CCCCC2)cc1 [Example 42]
2. CN(C)c1ccc(NC(=O)N(C[C@H]2CC[C@H](CN(C(=O)Nc3ccc(N(C)C)cc3)C3CCCCCC3)CC2)C2CCCCCC2)cc1 [Example 15]
3. CN(C)c1ccc(NC(=O)N(C[C@H]2CCC[C@H](CN(C(=O)Nc3ccc(N(C)C)cc3)C3CCCCCC3)C2)C2CCCCCC2)cc1 (relative stereo) [Example 61]

[reply]
1. 110
2. 93
3. 48

----------
- Assayed system: ACAT enzyme of rabbit liver microsomes
- Protocol details: Inhibitory effect on ACAT enzyme (No.2), rabbit liver microsomes
- Format: biochemical
- Experimental parameters: pH 7.4, 37° C., 60 minutes, Table 10
Consider the following molecules; for each one, report its IC50.
Answers are plain numbers, in nM.

Below, each entry is followed by its recorded IC50 result.
molecule=CN(C)c1ccc(NC(=O)N(C[C@H]2CC[C@H](CN(C(=O)Nc3ccc(N(C)C)cc3)C3CCCCCC3)CC2)C2CCCCCC2)cc1 numeric_value=83
molecule=O=C(Nc1ccc(N2CCCCC2)cc1)N(C[C@H]1CC[C@H](CN(C(=O)Nc2ccc(N3CCCCC3)cc2)C2CCCCC2)CC1)C1CCCCC1 numeric_value=35
molecule="CC1CCC(N(C[C@H]2CC[C@H](CN(C(=O)Nc3ccc(N(C)C)cc3)C3CCC(C)CC3)CC2)C(=O)Nc2ccc(N(C)C)cc2)CC1 (relative stereo)" numeric_value=42
molecule=O=C(Nc1ccc(N2CCCCCC2)cc1)N(C[C@H]1CC[C@H](CN(C(=O)Nc2ccc(N3CCCCCC3)cc2)C2CCCCC2)CC1)C1CCCCC1 numeric_value=62

[ask] IC50 for CN(C)c1ccc(NC(=O)N(C[C@H]2CC[C@H](CN(C(=O)Nc3ccc(N(C)C)cc3)C3CCCCC3)CC2)C2CCCCC2)cc1 [Example 12] ?
[reply] 36

----------
Consider the following molecules; for each one, report its Cholesterol lowering effect, % (serum total cholesterol vs control group).
- System: serum cholesterol
- Protocol details: Serum cholesterol lowering effect in rat having high cholesterol [3-1]
- Assay type: in vivo, SD-type (Sprague-Dawley) male rat
- Experimental parameters: 3 mg/kg, oral, once a day for 5 days, dissolved in saline, Table 12
Answers are plain numbers, in %.

molecule="CC1CCC(N(C[C@H]2CC[C@H](CN(C(=O)Nc3ccc(N(C)C)cc3)C3CCC(C)CC3)CC2)C(=O)Nc2ccc(N(C)C)cc2)CC1 (relative stereo) [Example 28]" reading_unit=% numeric_value=106

Consider the following items and state reported Cholesterol lowering effect, % (serum total cholesterol vs control group) for each.
1. CN(C)c1ccc(NC(=O)N(C[C@H]2CC[C@@H](CN(C(=O)Nc3ccc(N(C)C)cc3)C3CCCCCC3)CC2)C2CCCCCC2)cc1 [Example 43]
2. CN(C)c1ccc(NC(=O)N(C[C@H]2CC[C@H](CN(C(=O)Nc3ccc(N(C)C)cc3)C3CCCC3)CC2)C2CCCC2)cc1 [Example 11]
3. CN(C)c1ccc(NC(=O)N(C[C@@H]2CCC[C@H](CN(C(=O)Nc3ccc(N(C)C)cc3)C3CCCCCC3)C2)C2CCCCCC2)cc1 [Example 83]
4. CN(C)c1ccc(NC(=O)N(Cc2cccc(CN(C(=O)Nc3ccc(N(C)C)cc3)C3CCCCCC3)c2)C2CCCCCC2)cc1 [YM-17E, reference compound]
5. CN(C)c1ccc(NC(=O)N(CC(C)(C)C)C[C@H]2CC[C@H](CN(CC(C)(C)C)C(=O)Nc3ccc(N(C)C)cc3)CC2)cc1 [Example 7]

[reply]
88
108
43
38
105

----------
- Assayed system: ACAT (Acyl-CoA: cholesterol acyltransferase) enzyme of rabbit liver microsome
- Protocol details: Inhibitory effect on ACAT enzyme (No.1), rabbit liver microsome
- Experimental parameters: Table 9
Consider the following compounds; for each one, report its pIC50.
Answers are plain numbers, as −log10 of the molar value.

Below, each entry is followed by its recorded pIC50 result.
compound=CN(C)c1ccc(NC(=O)N(C[C@H]2CC[C@@H](CN(C(=O)Nc3ccc(N(C)C)cc3)C3CCCCC3)CC2)C2CCCCC2)cc1 numeric_value=7.22
compound=CN(C)c1ccc(NC(=O)N(C[C@H]2CC[C@H](CN(C(=O)Nc3ccc(N(C)C)cc3)C3CCCC3)CC2)C2CCCC2)cc1 numeric_value=7.33
compound="CN(C)c1ccc(NC(=O)N(Cc2cccc(CN(C(=O)Nc3ccc(N(C)C)cc3)C3CCCCCC3)c2)C2CCCCCC2)cc1 [YM-17E, reference compound]" numeric_value=7.64
compound="CN(C)c1ccc(NC(=O)N(C[C@H]2CCC[C@H](CN(C(=O)Nc3ccc(N(C)C)cc3)C3CCCCCC3)C2)C2CCCCCC2)cc1 (relative stereo)" numeric_value=7.44
compound=CN(C)c1ccc(NC(=O)N(CC(C)(C)C)C[C@H]2CC[C@H](CN(CC(C)(C)C)C(=O)Nc3ccc(N(C)C)cc3)CC2)cc1 numeric_value=7.00

Now look at this one.
[ask] pIC50 for CC1CCC(N(C[C@H]2CC[C@H](CN(C(=O)Nc3ccc(N(C)C)cc3)C3CCC(C)CC3)CC2)C(=O)Nc2ccc(N(C)C)cc2)CC1 (relative stereo) ?
[reply] 7.60

----------
- Assayed system: ACAT enzyme of rabbit liver microsomes
- Protocol details: Inhibitory effect on ACAT enzyme (No.2), rabbit liver microsomes
- Experimental parameters: pH 7.4, 37° C., 60 minutes, Table 10
Consider the following molecules; for each one, report its IC50.
Answers are plain numbers, in nM.

molecule="O=C(Nc1ccc(N2CCCC2)cc1)N(C[C@H]1CC[C@H](CN(C(=O)Nc2ccc(N3CCCC3)cc2)C2CCCCC2)CC1)C1CCCCC1 [Example 14-1]" measured_parameter=IC50 numeric_value=180

Consider the following items and state reported IC50 for each.
1. CN(C)c1ccc(NC(=O)N(C[C@H]2CC[C@H](CN(C(=O)Nc3ccc(N(C)C)cc3)C3CCCCC3)CC2)C2CCCCC2)cc1 [Example 12-1]
2. CN(C)c1ccc(NC(=O)N(Cc2cccc(CN(C(=O)Nc3ccc(N(C)C)cc3)C3CCCCCC3)c2)C2CCCCCC2)cc1 [YM-17E, reference compound]

[reply]
78
23

Sourced from patent US5733931A
